Catalogue of EC50, AP1-Luc signaling, bispecific mode values
Tested target: T1, human LAG3 chimera (extracellular domain of human LAG3 and trans-membrane/cytoplasmic domain of human CD300a) … (human, UniProt P18627 23-450; Q9UGN4 181-299, limits assumed)
T1 sequence (looked up): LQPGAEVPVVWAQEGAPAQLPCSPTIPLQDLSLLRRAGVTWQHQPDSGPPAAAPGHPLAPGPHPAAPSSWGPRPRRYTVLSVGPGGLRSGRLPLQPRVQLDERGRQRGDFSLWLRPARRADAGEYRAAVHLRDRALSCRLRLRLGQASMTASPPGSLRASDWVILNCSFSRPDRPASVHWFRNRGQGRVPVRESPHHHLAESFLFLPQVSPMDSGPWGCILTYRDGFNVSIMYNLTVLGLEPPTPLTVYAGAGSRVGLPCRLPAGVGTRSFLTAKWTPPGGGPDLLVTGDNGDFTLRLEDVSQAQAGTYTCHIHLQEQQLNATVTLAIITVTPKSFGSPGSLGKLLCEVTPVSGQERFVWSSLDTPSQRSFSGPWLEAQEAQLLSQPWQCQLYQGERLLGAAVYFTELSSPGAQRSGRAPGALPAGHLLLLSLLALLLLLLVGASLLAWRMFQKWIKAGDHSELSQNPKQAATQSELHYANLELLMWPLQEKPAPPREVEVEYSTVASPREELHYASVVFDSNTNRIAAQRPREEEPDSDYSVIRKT
Test protocol: cell-based or functional assay
I only need the number, in pM, no unit after it.

Recorded EC50, AP1-Luc signaling, bispecific mode, per entry:
Binder | Units of measure | EC50, AP1-Luc signaling, bispecific mode
H4H15483P (antibody, human IgG4, V domains shown, H4H = human IgG4 Fc with S108P hinge mutation) VH: QVQLQQWGAGLLPPSETLSLICAVYGGSFSGYYWSWIRQPPGKGLEWIGEINHRGSTNYNPSLKSRATISVDTSKNQFSLKLSSVTAADTAVYYCSRGEDYYDSSGYSYYFDYWGQGTLVTVSS VL: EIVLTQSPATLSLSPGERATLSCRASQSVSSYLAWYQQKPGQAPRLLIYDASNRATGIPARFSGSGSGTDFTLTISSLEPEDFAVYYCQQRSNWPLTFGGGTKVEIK | pM | 3690
H4H14813N (antibody, human IgG4, V domains shown, H4H = human IgG4 Fc with S108P hinge mutation) VH: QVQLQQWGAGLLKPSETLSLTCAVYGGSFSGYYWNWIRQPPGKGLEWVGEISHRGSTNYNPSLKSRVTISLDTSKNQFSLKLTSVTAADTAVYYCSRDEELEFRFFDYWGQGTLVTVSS VL: EIVLTQSPATLSLSPGERATLSCRASQSVSSYLAWYQQKPGQAPRLLVYGASNRATGIPARFSGSGSGTDFTLTISSLEPEDFAFYYCQQRSNWPLTFGGGTKVEIK | pM | 1070
H4sH15479P (antibody, V domains shown) VH: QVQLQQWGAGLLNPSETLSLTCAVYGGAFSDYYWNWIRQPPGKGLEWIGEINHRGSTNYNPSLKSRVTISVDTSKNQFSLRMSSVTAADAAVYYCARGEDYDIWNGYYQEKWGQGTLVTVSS VL: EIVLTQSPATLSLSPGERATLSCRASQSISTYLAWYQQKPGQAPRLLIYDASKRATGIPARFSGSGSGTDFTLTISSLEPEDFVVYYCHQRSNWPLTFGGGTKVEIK | pM | 87.2

input: Return EC50, AP1-Luc signaling, bispecific mode for the following binder: H4sH14813N (antibody, human IgG4 S228P, kappa, V domains shown, H4sH = modified human IgG4 Fc) VH: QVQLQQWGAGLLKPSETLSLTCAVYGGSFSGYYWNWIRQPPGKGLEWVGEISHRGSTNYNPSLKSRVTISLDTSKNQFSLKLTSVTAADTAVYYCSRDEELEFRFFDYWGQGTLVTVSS VL: EIVLTQSPATLSLSPGERATLSCRASQSVSSYLAWYQQKPGQAPRLLVYGASNRATGIPARFSGSGSGTDFTLTISSLEPEDFAFYYCQQRSNWPLTFGGGTKVEIKR
output: 688

input: Return EC50, AP1-Luc signaling, bispecific mode for the following binder: H4H15479P (antibody, human IgG4, V domains shown) VH: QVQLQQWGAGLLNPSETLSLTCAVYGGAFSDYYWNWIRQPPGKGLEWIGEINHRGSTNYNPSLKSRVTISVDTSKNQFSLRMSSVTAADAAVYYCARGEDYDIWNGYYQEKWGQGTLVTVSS VL: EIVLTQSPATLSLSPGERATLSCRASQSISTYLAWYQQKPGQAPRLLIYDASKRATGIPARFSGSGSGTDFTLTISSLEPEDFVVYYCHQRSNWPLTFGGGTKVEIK
output: 145
